Biological target: Histamine H2 receptor (Homo sapiens); note: assay procedure not described here
Sequence (P25021 whole entry): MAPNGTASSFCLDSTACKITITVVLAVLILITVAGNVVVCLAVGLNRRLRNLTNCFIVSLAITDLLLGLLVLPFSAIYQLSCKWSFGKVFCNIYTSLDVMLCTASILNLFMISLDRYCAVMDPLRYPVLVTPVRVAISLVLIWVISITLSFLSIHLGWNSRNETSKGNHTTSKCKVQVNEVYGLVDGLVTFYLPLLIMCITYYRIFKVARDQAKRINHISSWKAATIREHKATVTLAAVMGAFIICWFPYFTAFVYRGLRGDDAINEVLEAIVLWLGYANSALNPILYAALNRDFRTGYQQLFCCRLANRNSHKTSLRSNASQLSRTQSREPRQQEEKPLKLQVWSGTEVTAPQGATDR
valueType: AC50

INSERT INTO assay_data (molecule, targetorsystem, reportedmeasurement) VALUES
  ('CCOc1cc2ncc(C#N)c(Nc3ccc(OCc4ccccn4)c(Cl)c3)c2cc1NC(=O)/C=C/CN(C)C', 'Histamine H2 receptor (Homo sapiens)', '1.22 µM'),
  ('N=C(N)NC(=O)c1nc(Cl)c(N)nc1N [AMILORIDE]', 'Histamine H2 receptor (Homo sapiens)', '> 10 µM'),
  ('O=C(O[C@H]1C[N+]2(CCCOc3ccccc3)CCC1CC2)C(O)(c1cccs1)c1cccs1 [ACLIDINIUM BROMIDE]', 'Histamine H2 receptor (Homo sapiens)', '> 10 µM'),
  ('Oc1cc(O)c2c(c1)O[C@H](c1ccc(O)c(O)c1)[C@@H](O)C2', 'Histamine H2 receptor (Homo sapiens)', '> 10 µM'),
  ('NCC1(CC(=O)O)CCCCC1', 'Histamine H2 receptor (Homo sapiens)', '> 10 µM'),
  ('COc1ccc2c3c1O[C@H]1C(=O)CC[C@H]4[C@@H](C2)N(C)CC[C@]314 [HYDROCODONE]', 'Histamine H2 receptor (Homo sapiens)', '> 10 µM'),
  ('CN1C(=O)CN=C(c2ccccc2F)c2cc([N+](=O)[O-])ccc21', 'Histamine H2 receptor (Homo sapiens)', '> 10 µM'),
  ('O=C1CN=C(c2ccccc2Cl)c2cc([N+](=O)[O-])ccc2N1', 'Histamine H2 receptor (Homo sapiens)', '> 10 µM');

Measured values drawn from ChEMBL document CHEMBL5291721 for this set.
